Value source: patent US11040963B2

Some molecules, each annotated with its measured pIC50.
# system: HA H5 A/Vietnam/1203/04 (Influenza A virus (A/Vietnam/1203/2004(H5N1)))
# measurement_notes: biochemical
# assay_setup: Competition binding (AlphaLISA), pIC50 H5 A/Vietnam/1203/04
# pIC50 is unitless: minus log10 of the molar concentration; print number only

Below, each entry is followed by its recorded pIC50 result.
# molecule, pIC50
records = [
    ("COc1ccc2nc(-c3cccc(C(=O)N4CCN(C(c5ccccc5)c5ncco5)CC4)c3)sc2c1 (stereo not shown)", 5.70),
    ("COc1ccc2nc(-c3cccc(C(=O)N4CCN(C(C(=O)NCCN)c5ccccc5)CC4)c3)sc2c1 (stereo not shown)", 6.20),
]

Could you please provide reported pIC50 for Cc1nnc([C@@H](c2ccccc2)N2CCN(C(=O)c3cc(-c4nc5cc(C(F)(F)F)ccc5o4)ccc3F)CC2)o1 ? Thanks!
5.10

Could you please provide reported pIC50 for COC(=O)C(c1ccccc1)N1CCN(C(=O)c2cccc(-c3nc4ccc(OC)cc4s3)n2)CC1 (stereo not shown) ? Thanks!
4.60

Could you please provide reported pIC50 for Cn1ccc(C(c2ccccc2)N2CCN(C(=O)c3cccc(-c4nc5cc(C(F)(F)F)ccc5o4)c3)CC2)n1 (stereo not shown) ? Thanks!
4.70

Could you please provide reported pIC50 for Cc1nnc(C(c2ccccc2)N2CCN(C(=O)[C@H]3CCCN(c4nc5cc(C(F)(F)F)ccc5o4)C3)CC2)o1 (stereo partly shown) ? Thanks!
4.30

Could you please provide reported pIC50 for CNc1ccc2oc(-c3cccc(C(=O)N4CCN(C(c5ccccc5)c5nnc(C)o5)CC4)c3)nc2c1 (stereo not shown) ? Thanks!
5.80

###

# system: HA H1 A/New Caledonia/20/99 (Influenza A virus (A/New Caledonia/20/1999(H1N1)), UniProt Q6WG00)
# measurement_notes: biochemical
# assay_setup: Competition binding (AlphaLISA), pIC50 H1 A/New Caledonia/20/99
measured_quantity: pIC50
# pIC50 is unitless: minus log10 of the molar concentration; print number only

Below, each entry is followed by its recorded pIC50 result.
# molecule, measured_quantity, readout_number
records = [
    ("COC(=O)[C@@H](c1ccccc1)N1CCN(C(=O)c2cccc(-c3nc4cc(C(F)(F)F)ccc4o3)c2)[C@@H](CC(N)=O)C1", "pIC50", 7.50),
    ("COC(=O)C(c1ccccc1)N1CCN(C(=O)c2cccc(NC(=O)c3ccc(OC)cc3)c2)CC1 (centres unmarked)", "pIC50", 6.90),
    ("Cc1cnc(C(c2ccccc2)N2CCN(C(=O)c3cc(-c4nc5cc(OC(F)(F)F)ccc5o4)ccn3)CC2)o1 (centres unmarked)", "pIC50", 7.70),
    ("Cc1nnc([C@@H](c2ccccc2)N2CCN(C(=O)c3cccc(-c4nc5c(C)cccc5o4)c3)CC2)o1", "pIC50", 7.10),
]

Could you please provide reported pIC50 for Cc1nnc([C@@H](c2ccccc2)N2CCN(C(=O)c3cccc(-c4cnc5ccccc5c4)c3)CC2)o1 ? Thanks!
6.80

Could you please provide reported pIC50 for Cc1nnc(C(c2ccccc2)N2CCN(C(=O)c3cc(-c4nc5ccccc5s4)ccc3F)CC2)o1 (centres unmarked) ? Thanks!
6.70

Could you please provide reported pIC50 for Cc1nnc(C(c2ccccc2)N2CCN(C(=O)c3cccc(-c4nc5cc(NS(C)(=O)=O)ccc5o4)c3)CC2)o1 (centres unmarked) ? Thanks!
7.60

###

# system: HA H5 A/Vietnam/1203/04 (Influenza A virus (A/Vietnam/1203/2004(H5N1)), UniProt Q5EP31)
# measurement_notes: biochemical
# assay_setup: Competition binding (AlphaLISA), pIC50 H5 A/Vietnam/1203/04
measured_quantity: log10 of IC50 (log10 of the value in nM)
On a log10 scale: recorded IC50, unit nM.

# compound, log10 of IC50
rows = [
    ("COC(=O)C(c1cccnc1)N1CCN(C(=O)c2cccc(-c3nc4ccc(OC)cc4s3)c2)CC1 (stereo not drawn) [Example 68]", 3.10),
]

Could you please provide reported log10 of IC50 for Cc1nnc(C(c2ccccc2)N2CCN(C(=O)c3cc(-c4nc5ccccc5o4)ccc3F)CC2)o1 (stereo not drawn) [Example 52] ? Thanks!
4.30

Could you please provide reported log10 of IC50 for COC(=O)[C@H](c1ccccc1)N1CCN(C(=O)c2cccc(-c3nc4cc(OC)ccc4o3)c2)CC1 [Example 100] ? Thanks!
4.40

Could you please provide reported log10 of IC50 for CCCNC(=O)C(c1ccccc1)N1CCN(C(=O)c2cccc(-c3nc4ccc(OC)cc4s3)c2)CC1 (stereo not drawn) [Example 104] ? Thanks!
3.30

Could you please provide reported log10 of IC50 for COC(=O)C(c1ccccc1)N1CCN(C(=O)c2cccc(-c3nc4ccncc4o3)c2)CC1 (stereo not drawn) [Example 43] ? Thanks!
3.10

Could you please provide reported log10 of IC50 for COC(=O)C(c1ccccc1)N1CCN(C(=O)c2cccc(-c3nc4cccnc4o3)c2)CC1 (stereo not drawn) [Example 50] ? Thanks!
3.60

Could you please provide reported log10 of IC50 for COc1ccc2nc(-c3cccc(C(=O)N4CCN(C(C(=O)NCCCN)c5ccccc5)CC4)c3)sc2c1 (stereo not drawn) [Example 55] ? Thanks!
2.80

Could you please provide reported log10 of IC50 for Cc1nnc([C@@H](c2ccccc2)N2CCN(C(=O)c3cc(F)cc(-c4nc5cc(C(F)(F)F)ccc5o4)c3)CC2)o1 [Example 63] ? Thanks!
4.20

Could you please provide reported log10 of IC50 for [2H]C([2H])([2H])c1nnc(C(c2ccccc2)N2CCN(C(=O)c3cccc(-c4nc5cc(C(F)(F)F)ccc5o4)c3)CC2)o1 (stereo not drawn) [Example 70] ? Thanks!
3.60

Could you please provide reported log10 of IC50 for Cc1nnc(C(c2ccccc2)N2CCN(C(=O)c3cccc(-c4nc5cc(O)ccc5o4)c3)CC2)o1 (stereo not drawn) [Example 44] ? Thanks!
3.20

Could you please provide reported log10 of IC50 for Cc1nnc([C@@H](c2ccccc2)N2CCN(C(=O)c3cccc(-c4ncc5ccccc5n4)c3)CC2)o1 [Example 38] ? Thanks!
3.30

Could you please provide reported log10 of IC50 for COc1ccc2nc(-c3cccc(C(=O)N4CCN(C(c5ccccc5)c5nncs5)CC4)c3)sc2c1 (stereo not drawn) [Example 56] ? Thanks!
3.50

Could you please provide reported log10 of IC50 for COc1ccc2nc(-c3cccc(C(=O)N4CCN(C(C(C)=O)c5ccccc5)CC4)c3)sc2c1 (stereo not drawn) [Example 106] ? Thanks!
3.30

Could you please provide reported log10 of IC50 for COC(=O)C(c1ccccc1)N1CCN(C(=O)c2cccc(-c3nc4cc(C(F)(F)F)ccc4o3)c2)CC1 (stereo not drawn) [Example 42] ? Thanks!
3.00

Could you please provide reported log10 of IC50 for CNC(=O)N(Cc1ccccc1)C1CCN(C(=O)c2cccc(-c3nc4ccc(OC)cc4s3)c2)CC1 [Example 118] ? Thanks!
4.40

###

# system: HA H5 A/Vietnam/1203/04 (Influenza A virus (A/Vietnam/1203/2004(H5N1)), UniProt Q5EP31)
# measurement_notes: biochemical
# assay_setup: Competition binding (AlphaLISA), pIC50 H5 A/Vietnam/1203/04
measured_quantity: pIC50
# pIC50 is unitless: minus log10 of the molar concentration; print number only

Below, each entry is followed by its recorded pIC50 result.
# compound, pIC50
records = [
    ("Cc1nnc([C@@H](c2ccccc2)N2CCN(C(=O)c3cc(-c4nc5cc(C(F)(F)F)ccc5o4)ccn3)CC2)o1", 6.20),
    ("COC(=O)C(c1ccccc1)N1CCN(C(=O)c2cccc(-c3nc4cc(OC(F)(F)F)ccc4o3)c2)CC1 (stereo not shown)", 6.40),
    ("COC(=O)C(c1ccccc1)N1CCN(C(=O)c2cc(-c3nc4ccc(OC)cc4s3)ccn2)CC1 (stereo not shown)", 6.90),
]

Could you please provide reported pIC50 for COC(=O)C(c1ccccc1)C1CCN(C(=O)c2cccc(-c3nc4ccc(OC)cc4[nH]3)c2)CC1 (stereo not shown) ? Thanks!
4.90

Could you please provide reported pIC50 for COC(=O)C(c1ccccc1)N1CCN(C(=O)c2cccc(-c3ccc(OC)cc3)c2)CC1 (stereo not shown) [Example 83] ? Thanks!
5.60

Could you please provide reported pIC50 for COc1ccc2nc(-c3cccc(C(=O)N4CCN([C@H](c5ccccc5)c5nnn(C)n5)CC4)c3)sc2c1 ? Thanks!
6.30

Could you please provide reported pIC50 for COC(=O)[C@@H](c1ccccc1)N1CCN(C(=O)c2cccc(-c3nc4cc(C(F)(F)F)ccc4o3)c2)[C@H](C(N)=O)C1 ? Thanks!
4.60

###

# system: HA H5 A/Vietnam/1203/04 (Influenza A virus (A/Vietnam/1203/2004(H5N1)))
# measurement_notes: biochemical
# assay_setup: Competition binding (AlphaLISA), pIC50 H5 A/Vietnam/1203/04
measured_quantity: IC50 (nM)
Numbers only here, please. The scale is nM.

Below, each entry is followed by its recorded IC50 result.
# compound, IC50 (nM)
rows = [
    ("Cc1nnc(C(c2ccccc2)N2CCN(C(=O)c3cc(-c4nc5cc(OC(F)(F)F)ccc5o4)ccn3)CC2)o1 (stereo not shown)", 501),
    ("O=C(c1cccc(-c2nc3cc(C(F)(F)F)ccc3o2)c1)N1CCN(C(c2ccccc2)c2nnc(C3CNC3)o2)CC1 (stereo not shown)", 3160),
    ("COC(=O)C(c1ccccc1)N1CCN(C(=O)c2cccc(-c3nc4ccc(OC)cc4[nH]3)c2)CC1 (stereo not shown)", 1580),
]

// moving on: another record for IC50
Under HA H5 A/Vietnam/1203/04 (Influenza A virus (A/Vietnam/1203/2004(H5N1))), report IC50 for Cc1nnc([C@@H](c2ccccc2)N2CCN(C(=O)c3cccc(-c4nc5c(C)cccc5o4)c3)CC2)o1
3980
